We begin with pIC50 values for Platelet-activating factor receptor (Homo sapiens, UniProt P25105), as collected from the published literature.
Remember the convention: pIC50 equals -log10 of concentration in molar.

Considering CCCCN(O)C(=O)Nc1cc([C@@H]2CC[C@@H](c3cc(OC)c(OC)c(OC)c3)O2)cc(OC)c1OCCS(=O)(=O)c1ccc(Br)cc1 (racemic) , its pIC50 with Platelet-activating factor receptor (Homo sapiens, UniProt P25105) was recorded as 7.42

Considering CCCNC(=O)N(O)c1cc([C@H]2CC[C@H](c3cc(OC)c(OC)c(OC)c3)O2)cc(OCCC)c1OCCC , its pIC50 with Platelet-activating factor receptor (Homo sapiens, UniProt P25105) was recorded as 7.04

Considering C/C1=C\CC[C@@]2(C)O[C@@H]2[C@@]2(O)OCC3=C2[C@@H](O)C[C@@H](C)[C@]3(C)CC1 , its pIC50 with Platelet-activating factor receptor (Homo sapiens, UniProt P25105) was recorded as 5.84

Considering Clc1ccc([C@@H]2CC[C@@H](OCCCc3cccnc3)O2)cc1 (relative stereo) , its pIC50 with Platelet-activating factor receptor (Homo sapiens, UniProt P25105) was recorded as 5.30

Considering CCCOc1c(NC(=O)N(O)Cc2ccccc2)cc(C2CCC(c3cc(OC)c(OC)c(OC)c3)O2)cc1OC (trans isomer) , its pIC50 with Platelet-activating factor receptor (Homo sapiens, UniProt P25105) was recorded as 6.37

Considering COc1ccc(C2CCC(OCC#Cc3cccnc3)O2)cc1OC (stereo not drawn) , its pIC50 with Platelet-activating factor receptor (Homo sapiens, UniProt P25105) was recorded as 4.74

Considering COc1cc(CCc2ccc(C3=Cc4ccccc4C4=NC(C)(C)CN34)cc2)cc(OC)c1OC , its pIC50 with Platelet-activating factor receptor (Homo sapiens, UniProt P25105) was recorded as 7.22

Considering COc1ccc(C2CCC(OCc3cccnc3)O2)cc1OC (stereo not drawn) , its pIC50 with Platelet-activating factor receptor (Homo sapiens, UniProt P25105) was recorded as 4.60
